- Tested on: Nucleic Acid
- experiment.notes: DNA binding affinity using poly(dA-dT).
- Assay type: nucleic-acid assay
measured.metric: DNA binding (°C)

[
  {
    "compound": "N=C(N)c1ccc(N2CCCN(c3ccc(C(=N)N)cc3)CC2)cc1",
    "reading.unit": "°C",
    "DNA binding": 23.1
  },
  {
    "compound": "N=C(N)c1ccc(OC[C@@H]2C[C@H]2COc2ccc(C(=N)N)cc2)cc1",
    "reading.unit": "°C",
    "DNA binding": 20.3
  },
  {
    "compound": "N=C(N)c1ccc(OCCCCCOc2ccc(C(=N)N)cc2)cc1",
    "reading.unit": "°C",
    "DNA binding": 20.6
  },
  {
    "compound": "N=C(NCCO)c1ccc(N2CCCN(c3ccc(/C(N)=N/CCO)cc3)CC2)cc1",
    "reading.unit": "°C",
    "DNA binding": 14.7
  },
  {
    "compound": "c1cc(N2CCN(c3ccc(C4=NCCN4)cc3)CC2)ccc1C1=NCCN1",
    "reading.unit": "°C",
    "DNA binding": 19.4
  }
]

(a) c1cc(C2=NCCN2)ccc1CC1CCCN(c2ccc(C3=NCCN3)cc2)C1 (stereo not given)
(b) N=C(NC1CC1)c1ccc(N2CCCN(c3ccc(C(=N)NC4CC4)cc3)CC2)cc1
(c) CC(C)(C)/N=C(\N)c1ccc(N2CCCN(c3ccc(/C(N)=N/C(C)(C)C)cc3)CC2)cc1
Task field, ranking: reported DNA binding, descending order. Answer by listing the labels in the order asked for. b, a, c
(b: 23.6 °C, a: 14.1 °C, c: 7.4 °C)

----------
- System: Calf thymus DNA
- experiment.notes: DNA binding affinity using calf thymus DNA.
- Format: nucleic-acid assay
- condition.notes: Bos taurus
measured.metric: DNA binding (°C)

(I) N=C(N)c1ccc(OCCCCCOc2ccc(C(=N)N)cc2)cc1
(II) c1cc(C2=NCCN2)ccc1CC1CCN(c2ccc(C3=NCCN3)cc2)CC1
Smaller DNA binding value? Options are I and II Please reply using the label of the selected record. I

----------
- Tested on: Nucleic Acid
- experiment.notes: DNA binding affinity using poly(dA-dT).
- Format: nucleic-acid assay
measured.metric: DNA binding (°C)

Examples from the recorded data:
[
  {
    "compound": "C(=C1CCN(Cc2ccc(C3=NCCN3)cc2)CC1)c1ccc(C2=NCCN2)cc1",
    "subject.of.test": "Nucleic Acid",
    "recorded.value": 19.4
  },
  {
    "compound": "N=C(N)c1ccc(NC(=O)c2cccc(C(=O)Nc3ccc(C(=N)N)cc3)n2)cc1",
    "subject.of.test": "Nucleic Acid",
    "recorded.value": 15.9
  }
]

(a) c1cc(C2=NCCN2)ccc1CC1CCN(c2ccc(C3=NCCN3)cc2)CC1
(b) CC(C)/N=C(\N)c1ccc(N2CCCN(c3ccc(/C(N)=N/C(C)C)cc3)CC2)cc1
(c) O=C(Nc1ccc(C2=NCCN2)cc1)C1C[C@H]1C(=O)Nc1ccc(C2=NCCN2)cc1 (stereo partly specified)
Order the entries by their reported DNA binding, beginning at the minimum. Please write the labels in the order that was asked for. c, b, a

----------
- System: Calf thymus DNA
- experiment.notes: DNA binding affinity using calf thymus DNA.
- Type: nucleic-acid assay
- condition.notes: Bos taurus
measured.metric: DNA binding (°C)

Below are worked cases with known answers.
[
  {
    "compound": "CC(C)/N=C(\\N)c1ccc(N2CCCN(c3ccc(/C(N)=N/C(C)C)cc3)CC2)cc1",
    "DNA binding / °C": 13.8
  },
  {
    "compound": "N=C(NCCO)c1ccc(N2CCCN(c3ccc(/C(N)=N/CCO)cc3)CC2)cc1",
    "DNA binding / °C": 11.1
  }
]

(a) c1cc(C2=NCCN2)ccc1CC1CCCN(c2ccc(C3=NCCN3)cc2)C1 (stereo unspecified)
(b) N=C(NC1CC1)c1ccc(N2CCCN(c3ccc(C(=N)NC4CC4)cc3)CC2)cc1
Recorded DNA binding values differ for a and b ; which one is higher? # respond with the chosen item's label b

----------
- System: Calf thymus DNA
- experiment.notes: DNA binding affinity using calf thymus DNA.
- Type: nucleic-acid assay
- condition.notes: Bos taurus
measured.metric: DNA binding (°C)

[
  {
    "compound": "N=C(N)c1ccc(NC(=O)c2cccc(C(=O)Nc3ccc(C(=N)N)cc3)n2)cc1",
    "subject.of.test": "Calf thymus DNA",
    "reading.unit": "°C",
    "DNA binding": 7.1
  },
  {
    "compound": "N=C(N)c1ccc(OC[C@@H]2C[C@H]2COc2ccc(C(=N)N)cc2)cc1",
    "subject.of.test": "Calf thymus DNA",
    "reading.unit": "°C",
    "DNA binding": 11.1
  },
  {
    "compound": "CC(C)(C)/N=C(\\N)c1ccc(N2CCCN(c3ccc(/C(N)=N/C(C)(C)C)cc3)CC2)cc1",
    "subject.of.test": "Calf thymus DNA",
    "reading.unit": "°C",
    "DNA binding": 4.1
  },
  {
    "compound": "N=C(N)c1ccc(N2CCCN(c3ccc(C(=N)N)cc3)CC2)cc1",
    "subject.of.test": "Calf thymus DNA",
    "reading.unit": "°C",
    "DNA binding": 15
  },
  {
    "compound": "C(=C1CCN(Cc2ccc(C3=NCCN3)cc2)CC1)c1ccc(C2=NCCN2)cc1",
    "subject.of.test": "Calf thymus DNA",
    "reading.unit": "°C",
    "DNA binding": 17
  }
]

(a) CCCCNC(=N)c1ccc(N2CCCN(c3ccc(C(=N)NCCCC)cc3)CC2)cc1
(b) O=C(Nc1ccc(C2=NCCN2)cc1)C1C[C@H]1C(=O)Nc1ccc(C2=NCCN2)cc1 (stereo partly drawn)
Between the entries labeled a and b , whose measured DNA binding is lower? Answer with the label corresponding to your selection. b
